test: Induction of nitric oxide release at 0.1 mM after 1 hr in phosphate buffer at pH 7.4 by Griess assay; assay type: physicochemical; conditions: pH 7.4, 1 h, 100 µM
Metric Name: Activity (mol/mol)

INSERT INTO measurements (compound, metric_name, readout_value) VALUES
  ('C/C(=N/O)c1ccc(OCC(=O)Nc2ccc(C(=O)/C=C/c3ccc4c(c3)OCO4)cc2)cc1', 'Activity', 0.14);

a. CC(O[N+](=O)[O-])C(=O)Nc1ccc(C(=O)/C=C/c2ccc3c(c2)OCO3)cc1 (centres undefined)
b. O=C(CO[N+](=O)[O-])Nc1ccc(C(=O)/C=C/c2ccc(Cl)cc2)cc1
Query: Hi, I'm comparing two records. Which one has the lower Activity, a or b ? Your answer should be the label of the entry you select.
Response: a

I. C/C(=N/O)c1ccc(OCC(=O)Nc2ccc(C(=O)/C=C/c3ccc(Cl)cc3)cc2)cc1
II. O=C(CO[N+](=O)[O-])Nc1ccc(C(=O)/C=C/c2ccc3c(c2)OCO3)cc1
Query: Hi, I'm comparing two records. Which one has the lower Activity, I or II ? Your answer should be the label of the entry you select.
Response: I
(I: 0.13 mol/mol, II: 0.39 mol/mol)

Where these numbers come from: ChEMBL document CHEMBL1926598
